The following compounds are listed with their measured cytotoxicity at 10 µM values.
# Protocol: Toxicity liver stage against HepG2, at 10uM
# Type: cell-based
# Design: test concentration 10 uM, cell line HepG2-A16-CD81EGFP
# Experimental Context: human, HepG2-A16-CD81EGFP cells; read-out: INHIBITION

{"Compound": "CC(C)Cn1cncc1CNC(=O)c1cccc(-n2cnnc2)c1", "Measurement Type": "cytotoxicity at 10 µM", "Readout Value": "-5.54%"}
{"Compound": "Cc1cc(NC(=O)CN(CC(C)O)c2ccccc2)on1 (stereo unspecified)", "Measurement Type": "cytotoxicity at 10 µM", "Readout Value": "-2.15%"}
{"Compound": "Cc1ccc(CN2CCN(c3ncnc4[nH]cnc34)CC2CCO)cc1 (stereo unspecified)", "Measurement Type": "cytotoxicity at 10 µM", "Readout Value": "28%"}
{"Compound": "CCn1cc(C(=O)N2CCCC3(CCC(=O)N(CCC(C)C)C3)C2)cn1 (stereo unspecified)", "Measurement Type": "cytotoxicity at 10 µM", "Readout Value": "-1.19%"}
{"Compound": "COCc1n[nH]c2c1CN(Cc1ccccn1)C2", "Measurement Type": "cytotoxicity at 10 µM", "Readout Value": "-102%"}

Consider the record given below.
Q: What value of cytotoxicity at 10 µM has been recorded for this entry: O=S(=O)(C1CC1)N1CCOCC2(CCN(c3ccccn3)C2)C1 (stereo unspecified)
Result: 12.9%

---

The following compounds are listed with their measured cytotoxicity at 10 µM values.
# Protocol: Toxicity liver stage against HepG2, at 10uM
# Format: cell-based
# Design: test concentration 10 uM, cell line HepG2-A16-CD81EGFP
# Experimental Context: human, HepG2-A16-CD81EGFP cells; read-out: INHIBITION
The response must be a number in % with no trailing unit.

Worked examples follow.
{"Compound": "COc1cccc(CN2CCN(C(=O)Nc3nc(C)ns3)CC2=O)c1", "Measurement Type": "cytotoxicity at 10 µM", "Unit": "%", "Readout Value": -3.05}
{"Compound": "CNS(=O)(=O)CCNC(=O)c1coc(COc2ccc(F)cc2)n1", "Measurement Type": "cytotoxicity at 10 µM", "Unit": "%", "Readout Value": 0.975}
{"Compound": "CCNC(=O)NCc1ccnc(N(C)C)n1", "Measurement Type": "cytotoxicity at 10 µM", "Unit": "%", "Readout Value": -0.786}
{"Compound": "CN(C)CC1(O)CCCN(C(=O)CCn2cc(Cl)cn2)C1 (stereo not given)", "Measurement Type": "cytotoxicity at 10 µM", "Unit": "%", "Readout Value": -138}

Q: What value of cytotoxicity at 10 µM has been recorded for this entry: Cn1cc(Br)c(=O)c(NS(=O)(=O)c2cc(F)ccc2Cl)c1
Result: -11

---

# Protocol: Toxicity liver stage against HepG2, at 10uM
# Assay type: cell-based
# Design: test concentration 10 uM, cell line HepG2-A16-CD81EGFP
# Experimental Context: human, HepG2-A16-CD81EGFP cells; read-out: INHIBITION
The following molecules are listed with their measured cytotoxicity at 10 µM values.
The response must be a number in % with no trailing unit.

Worked examples follow.
{"Molecule": "CCC1CCCCN1CCc1ccncc1 (configuration not stated)", "Unit": "%", "Readout Value": 2.4}
{"Molecule": "COC(=O)Cc1cn2cc(C(F)(F)F)ccc2n1", "Unit": "%", "Readout Value": 9.21}
{"Molecule": "CS(=O)(=O)N(Cc1ccon1)c1ccc2c(c1)OCO2", "Unit": "%", "Readout Value": 1.06}
{"Molecule": "CC1CCC(O)(Cn2ncnc2-c2cccc(C#N)c2)CC1 (configuration not stated)", "Unit": "%", "Readout Value": 0.775}
{"Molecule": "CN(C)[C@@H]1CCN(S(=O)(=O)C2CC2)[C@H]1Cc1ccccc1", "Unit": "%", "Readout Value": -7.46}

Consider the record given below.
Q: What value of cytotoxicity at 10 µM has been recorded for this entry: CC1CN(CC(=O)NCCc2ccncc2)Cc2ccccc2O1 (configuration not stated)
Result: -0.369
